Where these numbers come from: PubChem BioAssay AID208

Test system: HT29 intrarenal xenograft, nude mice, tumor weight change
protocol-summary: NCI In Vivo Anticancer Drug Screen. Data for tumor model HT29;CX-1 Human Adenocarcinoma (MER+) (intrarenal inoculation) in NU/NU BALB/C (nude) mice
condition-info: endpoint: mean tumor weight change; dose: 600.0 mg/kg/injection; schedule: Q04DX004 (sc); vehicle: Klucel (hydroxypropylcellulose) (HPC); higher = larger tumour
Records with an inconclusive call do not appear.
assay-endpoint: T/C

>>> result("COC(=O)Nc1nc2ccc(SC)cc2c(=O)[nH]1")
"95 % of control"
>>> result("CC1CCC(n2cnc3c(Cl)ncnc32)O1 (configuration not stated)")
"64 % of control"
>>> result("CC1=C/C(O)CC(=O)Cc2nc(co2)C(=O)N2CCC=C2C(=O)OC(C(C)C)C(C)/C=C\\C(=O)NC/C=C\\1 (configuration not stated)")
"54 % of control"
>>> result("O=C1N[C@H]2[C@H](CS[C@H]2CCCCC(=O)N(CCP(c2ccccc2)c2ccccc2)CCP(c2ccccc2)c2ccccc2)N1")
"86 % of control"
>>> result("COc1cc(C(=O)c2cocc2C(=O)c2ccc3c(c2)OCO3)cc(OC)c1OC")
"57 % of control"
>>> result("COc1ccc2c(ccc3oc([N+](=O)[O-])cc32)c1")
"76 % of control"
>>> result("O=Cc1ccc(C=O)c(Cl)c1")
"109 % of control"

----------
Test system: HT29 intrarenal xenograft, nude mice, tumor weight change
protocol-summary: NCI In Vivo Anticancer Drug Screen. Data for tumor model HT29;CX-1 Human Adenocarcinoma (MER+) (intrarenal inoculation) in NU/NU BALB/C (nude) mice
condition-info: endpoint: mean tumor weight change; dose: 2400.0 mg/kg/injection; schedule: Q04DX004 (sc); vehicle: saline with Tween-80; higher = larger tumour
Method: The antitumor activity of compounds was measured in mice bearing transplantable tumors. Survival or tumor size were measured and the results are expressed as the measurement made in the treated group (T) divided by the measurement made in the vehicle treated control group (C). The tumor model used in this assay is HT29;CX-1 Human Adenocarcinoma (MER+) (intrarenal inoculation) in NU/NU BALB/C (nude) mice
Results filed as inconclusive are left out.
Listing of recorded T/C by entry.
assay-endpoint: T/C

>>> result("O=C(c1cccnc1)c1cc(-c2ccccn2)c(=O)n2ccccc12")
"83 % of control"
>>> result("O=C(Nc1cccc2c(OC(=O)C(Cl)Cl)c(N=Nc3ccc(S(=O)(=O)Nc4nccs4)cc3)cc(N=Nc3ccc(S(=O)(=O)Nc4nccs4)cc3)c12)C(Cl)Cl (tested in a mixture with another compound)")
"159 % of control"
>>> result("CN(C)CCOc1ccc2c(c1)C/C(=C/c1ncc([N+](=O)[O-])n1C)C2=O")
"65 % of control"

----------
Tested on: HT29 intrarenal xenograft, nude mice, tumor weight change
protocol-summary: NCI In Vivo Anticancer Drug Screen. Data for tumor model HT29;CX-1 Human Adenocarcinoma (MER+) (intrarenal inoculation) in NU/NU BALB/C (nude) mice
condition-info: endpoint: mean tumor weight change; dose: 150.0 mg/kg/injection; schedule: Q04DX004 (sc); vehicle: saline with Tween-80; higher = larger tumour
Records with an inconclusive call do not appear.
assay-endpoint: T/C

>>> result("Nc1nc(N)c(N=O)c(Nc2ccc(Br)cc2)n1")
"106 % of control"
>>> result("C=COC(=O)C(Cc1ccccc1)NC(=O)OCc1ccccc1 (configuration not stated)")
"100 % of control"
>>> result("O=C(NC1CCCCC1)OCc1c(COC(=O)NC2CCCCC2)c(-c2ccc(Cl)c(Cl)c2)n2c1CCC2")
"67 % of control"
>>> result("COC1(OC)C2C=CC1CC2")
"114 % of control"
>>> result("FC(F)(F)c1nc2nc(Cl)c(Cl)nc2[nH]1")
"42 % of control"
>>> result("O=C(CCCCCCC(=O)ON1C(=O)CCC1=O)ON1C(=O)CCC1=O")
"25 % of control"
>>> result("N=c1c(C(=O)OCc2ccccc2)ncc(CCl)n1O")
"67 % of control"
